These measurements were taken from patent US20250282768A1.

Test system: p-IKKa levels in L363 (NIK translocated multiple myeloma) cells
Assay: Assay 2: Effect of compounds on p-IKKa levels in L363 (NIK translocated multiple myeloma) cells
Format: cell-based
Conditions: Homo sapiens, L-363, 6 h, read-out: Assay 2 IC50 (nM), p-IKKa (Ser 176/180) in BAFF stimulated L363 cells with MG132, 6 h; average if tested more than once
quantity kind: IC50

* CN1CC[C@](O)(c2nccn2-c2cccc(-c3ccnc(Nc4cnn(C)c4Cl)n3)n2)C1=O (single isomer, unassigned) [Example 106] | > 500 nM
* CN1CC[C@@](O)(c2cc(-c3cccc(-c4ccnc(Nc5cn(C)nc5N)n4)c3)no2)C1=O [Example 415] | > 500 nM
* CN1CC[C@@](O)(c2cc(-c3cccc(-c4ccnc(Nc5nc(C6CCOCC6)nn5C)n4)n3)no2)C1=O [Example 266] | > 500 nM
* CN1CC[C@@](O)(c2cn(-c3cccc(-c4ccnc(Nc5cn(C)nc5OCC(F)F)n4)n3)nn2)C1=O [Example 205] | < 50 nM
* CN1CC[C@@](O)(c2cc(-c3cccc(-c4ccnc(Nc5cc(OC(F)F)n(C)n5)n4)c3)no2)C1=O [Example 412] | 50 to 500 nM
* CC(Nc1nccc(-c2cccc(-c3cc([C@]4(O)CCN(C)C4=O)on3)n2)n1)c1cn(C)cn1 (some centres unmarked) [Example 378] | 50 to 500 nM
* CN1CC[C@@](O)(c2cc(-c3cccc(-c4ccnc(Nc5cnn6c5CCC6)n4)n3)on2)C1=O [Example 134] | < 50 nM
* CN1CC[C@@](O)(c2cc(-c3cccc(-c4ccnc(Nc5cnn(CC(F)(F)F)c5)n4)n3)no2)C1=O [Example 42] | < 50 nM
* CN1CC[C@@](O)(c2cc(-c3cccc(-c4ccnc(N[C@@H]5CCOC5)n4)c3)no2)C1=O [Example 12] | > 500 nM
* CN1CC[C@@](O)(c2cc(-c3cccc(-c4ccnc(Nc5ccnn6ccnc56)n4)n3)no2)C1=O [Example 127] | 50 to 500 nM
* CCc1c(Nc2nccc(-c3cccc(-c4cc([C@]5(O)CCN(C)C5=O)on4)n3)n2)cnn1C [Example 226] | < 50 nM
* CN1CC[C@@](O)(c2cc(-c3cccc(-c4ccnc(Nc5cn(C)nc5OCC(F)(F)F)n4)n3)no2)C1=O [Example 59] | < 50 nM
* CN1CC[C@H](n2cc(Nc3nccc(-c4cccc(-c5cc([C@]6(O)CCN(C)C6=O)on5)n4)n3)cn2)[C@@H](F)C1 (single isomer, unassigned) [Example 201] | < 50 nM
* COC1CCC(Nc2nccc(-c3cccc(-c4cc([C@]5(O)CCN(C)C5=O)on4)n3)n2)CC1 (some centres unmarked) [Example 469] | > 500 nM
* CN1CC[C@@](O)(c2cc(-c3cccc(-c4ccnc(Nc5ccn(C)n5)n4)c3F)no2)C1=O [Example 426] | > 500 nM
* CN1CC[C@@](O)(c2cc(-c3cccc(-c4ccnc(NC[C@@H]5C[C@@H]5F)n4)n3)no2)C1=O [Example 345] | 50 to 500 nM
* C[C@@H](Nc1nccc(-c2cccc(-c3cc([C@]4(O)CCN(C)C4=O)on3)n2)n1)c1cn[nH]c1 (single isomer, unassigned) [Example 148] | < 50 nM

###

Tested on: p-IKKa levels in L363 (NIK translocated multiple myeloma) cells
Test: Assay 2: Effect of compounds on p-IKKa levels in L363 (NIK translocated multiple myeloma) cells
Type: cell-based
Conditions: Homo sapiens, L-363, 6 h, read-out: Assay 2 IC50 (nM), p-IKKa (Ser 176/180) in BAFF stimulated L363 cells with MG132, 6 h; average if tested more than once
quantity kind: IC50

* Cc1cc(Nc2nccc(-c3cccc(-c4cc([C@]5(O)CCN(C)C5=O)on4)n3)n2)nn1C | < 50 nM
* C[C@H](Nc1nccc(-c2cccc(-c3cc([C@]4(O)CCN(C)C4=O)on3)n2)n1)C(=O)N1CCC(F)(F)C1 | 50 to 500 nM
* C[C@H](Nc1nccc(-c2cccc(-c3cc([C@]4(O)CCN(C)C4=O)on3)n2)n1)C(=O)N1CC(C)(F)C1 | 50 to 500 nM
* CN1CC[C@@](O)(c2cc(-c3cccc(-c4ccnc(Nc5cc6n(n5)CCOC6)n4)c3)no2)C1=O | > 500 nM

###

System: p-IKKa levels in L363 (NIK translocated multiple myeloma) cells
Assay: Assay 2: Effect of compounds on p-IKKa levels in L363 (NIK translocated multiple myeloma) cells
Type: cell-based
Conditions: Homo sapiens, L-363, 6 h, read-out: Assay 2 IC50 (nM), p-IKKa (Ser 176/180) in BAFF stimulated L363 cells with MG132, 6 h; average if tested more than once
IC50 reference
quantity kind: IC50

• C[C@@H](Nc1nccc(-c2cccc(-c3cc([C@]4(O)CCN(C)C4=O)on3)n2)n1)c1ccncc1 (single isomer, unassigned) = 50 to 500 nM
• CC(Nc1nccc(-c2cccc(-c3cc([C@]4(O)CCN(C)C4=O)on3)n2)n1)c1ncco1 (some centres unmarked) = 50 to 500 nM
• C[C@H](Nc1nccc(-c2cccc(-c3cc([C@]4(O)CCN(C)C4=O)on3)n2)n1)C(=O)N(C)C = 50 to 500 nM
• CN1CC[C@@](O)(c2cc(-c3cccc(-c4ccnc(N[C@H]5CCCC[C@H]5O)n4)n3)no2)C1=O (single isomer, unassigned) = > 500 nM
• CN(C)C[C@H](Nc1nccc(-c2cccc(-c3cc([C@]4(O)CCN(C)C4=O)on3)n2)n1)c1ccccc1 = > 500 nM
• COc1nn(CC(F)F)cc1Nc1nccc(-c2cccc(-n3cc([C@]4(O)CCN(C)C4=O)nn3)n2)n1 = < 50 nM
• CN1CC[C@@](O)(c2cc(-c3cccc(-c4ccnc(Nc5ncccc5F)n4)n3)no2)C1=O = > 500 nM
• CN1CC(F)(F)[C@@](O)(c2cc(-c3cccc(-c4ccnc(Nc5ccn(C)n5)n4)n3)no2)C1=O = < 50 nM
• CN1CC[C@@](O)(c2cc(-c3cccc(-c4ccnc(N[C@@H]5CCCC[C@@H]5O)n4)n3)no2)C1=O [Example 357] = > 500 nM
• CN1CC[C@@](O)(c2cc(-c3cccc(-c4ccnc(Nc5cc6n(n5)CCOC6)n4)n3)no2)C1=O = < 50 nM
• CN1CC[C@@](O)(c2cc(-c3cccc(-c4ccnc(Nc5cnc6cccnn56)n4)n3)no2)C1=O = > 500 nM

###

IC50 reference
System: p-IKKa levels in L363 (NIK translocated multiple myeloma) cells
Assay: Assay 2: Effect of compounds on p-IKKa levels in L363 (NIK translocated multiple myeloma) cells
Type: cell-based
Details: Homo sapiens, L-363, 6 h, read-out: Assay 2 IC50 (nM), p-IKKa (Ser 176/180) in BAFF stimulated L363 cells with MG132, 6 h; average if tested more than once
quantity kind: IC50

- CO[C@@H]1CCC[C@H](Nc2nccc(-c3cccc(-c4cc([C@]5(O)CCN(C)C5=O)on4)n3)n2)C1: 50 to 500 nM
- CN1CC[C@@](O)(c2cc(-c3cccc(-c4ccnc(N[C@@H]5CCOC5)n4)n3)no2)C1=O: 50 to 500 nM
- Cc1nocc1Nc1nccc(-c2cccc(-c3cc([C@]4(O)CCN(C)C4=O)on3)n2)n1: < 50 nM
- Cc1n[nH]cc1Nc1nccc(-c2cccc(-c3cc([C@]4(O)CCN(C)C4=O)on3)n2)n1: < 50 nM
- Cc1ccc(Nc2nccc(-c3cccc(-c4cc([C@]5(O)CCN(C)C5=O)on4)n3)n2)cn1: 50 to 500 nM
- COCn1ncc(Nc2nccc(-c3cccc(-c4cc([C@]5(O)CCN(C)C5=O)no4)n3)n2)n1: < 50 nM
- CN1CC[C@@](O)(c2cc(-c3cccc(-c4ccnc(Nc5cnn(C6CCNC6)c5)n4)n3)no2)C1=O (stereo partly shown): 50 to 500 nM
- CN1CC[C@](O)(c2cnc(-c3cccc(-c4ccnc(Nc5ccn(C)n5)n4)n3)s2)C1=O (single isomer, unassigned): > 500 nM
- Cc1ncccc1Nc1nccc(-c2cccc(-c3cc([C@]4(O)CCN(C)C4=O)on3)c2)n1: 50 to 500 nM
- CN1CC[C@@](O)(c2cc(-c3cccc(-c4ccnc(-n5cc(N)cn5)n4)n3)no2)C1=O: > 500 nM
- CN1CC[C@@](O)(c2cc(-c3cccc(-c4ccnc(NCCC(F)(F)F)n4)n3)no2)C1=O: 50 to 500 nM
- CN1CC[C@@](O)(c2cc(-c3cccc(-c4ccnc(NC5CCN(S(=O)(=O)C6CC6)CC5)n4)n3)no2)C1=O: 50 to 500 nM
- CN1CC[C@@](O)(c2cc(-c3cccc(-c4ccnc(Nc5cc6n(n5)CCNC6)n4)c3)no2)C1=O: > 500 nM
